B1: TRIM35 (parent)
chain: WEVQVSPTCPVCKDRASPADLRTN

Variants of: B1
Assay: protein stability index of a GFP-peptide fusion (GPS, HEK-293T) (PSI 1-6); higher = more stable;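 note: lentivirally expressed fusions sorted by FACS into six bins by GFP to DsRed ratio, PSI derived from sequencing read proportions per bin multiplied by bin number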
Settings: c terminus: a fixed tail appended
measured parameter: protein stability index
Answer with the value's number alone.

Please give the measured protein stability index for this variant: `V5S`
2.94

Please give the measured protein stability index for this variant: `P10Q`
3.01

Please give the measured protein stability index for this variant: `R22T`
2.91
